biological target: EIF3F (UniProt O00303); assay: log2 ratio of Biotin-Ahx-Ub-VS probe labelling (fragment/DMSO); higher = less target engagement (more negative = stronger competition), active = hit call of the paper (q ≤ 0.05, log2 ratio ≤ -1); conditions: compound concentration: 200 uM; treatment time: 3 h
Sequence (O00303 whole entry, the tested form may be a part): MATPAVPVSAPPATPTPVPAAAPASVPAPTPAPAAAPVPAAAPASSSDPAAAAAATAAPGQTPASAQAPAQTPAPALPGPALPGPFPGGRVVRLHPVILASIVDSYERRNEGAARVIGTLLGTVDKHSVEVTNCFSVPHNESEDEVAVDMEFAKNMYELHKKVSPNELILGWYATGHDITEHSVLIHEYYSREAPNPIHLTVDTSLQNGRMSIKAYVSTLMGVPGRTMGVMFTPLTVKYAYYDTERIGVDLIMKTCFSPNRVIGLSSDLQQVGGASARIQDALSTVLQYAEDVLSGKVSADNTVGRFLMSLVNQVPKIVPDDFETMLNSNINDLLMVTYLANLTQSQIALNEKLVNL
value_type: log2 ratio of Biotin-Ahx-Ub-VS probe labelling

Look over these answered cases.
compound	reported_measurement
CCN(Cc1ccc(C#N)cc1F)C(=O)CCl	-0.201 (inactive)
NC(=O)C1CCCN(C(=O)CCl)C1 (centres undefined)	-0.000958 (inactive)
COc1cccc(CN(C)C(=O)CCl)c1	0.0528 (inactive)

We now examine a further compound.
Request the reported log2 ratio of Biotin-Ahx-Ub-VS probe labelling associated with O=C(CCl)Nc1ccc(Cl)c(F)c1
-0.0742 (inactive)

====

Molecular target: USP15 (UniProt Q9Y4E8)
Sequence (whole entry): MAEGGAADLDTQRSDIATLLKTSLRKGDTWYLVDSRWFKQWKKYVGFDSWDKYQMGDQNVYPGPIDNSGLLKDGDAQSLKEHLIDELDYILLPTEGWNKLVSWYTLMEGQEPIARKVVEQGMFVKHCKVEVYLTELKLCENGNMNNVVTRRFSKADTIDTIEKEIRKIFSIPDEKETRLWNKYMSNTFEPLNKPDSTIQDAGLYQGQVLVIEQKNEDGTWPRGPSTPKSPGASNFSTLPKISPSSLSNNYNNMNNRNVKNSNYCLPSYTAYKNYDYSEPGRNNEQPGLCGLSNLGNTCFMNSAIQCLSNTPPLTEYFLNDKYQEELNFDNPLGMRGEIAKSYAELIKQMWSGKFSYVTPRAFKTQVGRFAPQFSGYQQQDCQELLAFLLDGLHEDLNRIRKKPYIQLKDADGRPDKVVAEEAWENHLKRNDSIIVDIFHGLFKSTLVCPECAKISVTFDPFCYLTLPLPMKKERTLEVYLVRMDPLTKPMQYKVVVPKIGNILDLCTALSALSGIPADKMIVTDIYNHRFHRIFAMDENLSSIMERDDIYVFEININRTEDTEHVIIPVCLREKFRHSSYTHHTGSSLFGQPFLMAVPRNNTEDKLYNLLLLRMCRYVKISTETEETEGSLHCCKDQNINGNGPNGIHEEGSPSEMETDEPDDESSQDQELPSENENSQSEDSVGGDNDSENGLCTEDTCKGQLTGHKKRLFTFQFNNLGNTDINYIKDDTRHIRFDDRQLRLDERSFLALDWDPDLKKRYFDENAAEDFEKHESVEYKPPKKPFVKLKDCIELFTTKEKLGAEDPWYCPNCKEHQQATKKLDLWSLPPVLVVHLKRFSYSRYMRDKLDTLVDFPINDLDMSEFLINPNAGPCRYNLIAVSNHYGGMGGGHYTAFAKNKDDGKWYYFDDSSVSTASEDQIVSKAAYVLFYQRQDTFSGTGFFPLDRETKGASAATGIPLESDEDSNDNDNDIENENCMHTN
Assay: log2 ratio of Biotin-Ahx-Ub-VS probe labelling (fragment/DMSO); higher = less target engagement (more negative = stronger competition), active = hit call of the paper (q ≤ 0.05, log2 ratio ≤ -1)
Details: compound concentration: 200 uM; treatment time: 3 h
Your answer must be one of the following: active, inactive

Look over these answered cases.
compound	assigned_label
O=C(CCl)NC1CCOc2ccccc21 (stereo unspecified)	inactive
O=C(CCl)NC1CCS(=O)(=O)c2ccccc21 (stereo unspecified)	inactive

Give the logged outcome of this assay for the following compound: Cl.O=C(CCl)N1CCN(Cc2ccccc2)CC1
inactive

Give the logged outcome of this assay for the following compound: O=C(CCl)N1CCc2[nH]c3ccccc3c2C1
active

Give the logged outcome of this assay for the following compound: Cl.O=C(CCl)N1CCCC(c2ncc[nH]2)C1 (stereo unspecified)
inactive

Give the logged outcome of this assay for the following compound: CS(=O)(=O)c1ccc(NC(=O)CCl)cc1
inactive

Give the logged outcome of this assay for the following compound: Cc1cccc(C)c1NC(=O)CCl
inactive

====

biological target: USP22 (UniProt Q9UPT9); experiment: log2 ratio of Biotin-Ahx-Ub-VS probe labelling (fragment/DMSO); higher = less target engagement (more negative = stronger competition), active = hit call of the paper (q ≤ 0.05, log2 ratio ≤ -1); settings: compound concentration: 200 uM; treatment time: 3 h
Sequence (Q9UPT9 whole entry, the tested form may be a part): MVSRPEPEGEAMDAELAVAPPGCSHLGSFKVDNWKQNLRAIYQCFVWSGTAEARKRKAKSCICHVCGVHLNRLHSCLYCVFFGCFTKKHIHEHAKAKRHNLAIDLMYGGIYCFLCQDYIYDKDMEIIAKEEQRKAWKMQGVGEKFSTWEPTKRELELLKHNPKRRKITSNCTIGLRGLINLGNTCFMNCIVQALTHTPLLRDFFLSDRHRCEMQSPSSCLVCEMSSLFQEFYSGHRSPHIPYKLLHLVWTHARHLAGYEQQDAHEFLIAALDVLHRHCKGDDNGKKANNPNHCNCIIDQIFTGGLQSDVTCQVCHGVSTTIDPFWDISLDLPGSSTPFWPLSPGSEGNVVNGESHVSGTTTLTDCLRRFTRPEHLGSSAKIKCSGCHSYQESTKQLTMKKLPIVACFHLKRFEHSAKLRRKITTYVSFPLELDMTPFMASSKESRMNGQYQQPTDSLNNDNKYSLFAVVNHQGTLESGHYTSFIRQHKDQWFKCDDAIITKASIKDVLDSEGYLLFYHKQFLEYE
value_type: log2 ratio of Biotin-Ahx-Ub-VS probe labelling
Give bare numbers.

// for each molecule in input: emit log2 ratio of Biotin-Ahx-Ub-VS probe labelling
1. O=C(CCl)NCc1noc(C2CC2)n1
2. Cl.O=C(CCl)N1CCc2ncncc2C1
3. O=C(CCl)NCCc1cccc2ccccc12

[-0.122, -0.0201, -0.385]

====

target: EIF3F (UniProt O00303); experiment: log2 ratio of Biotin-Ahx-Ub-VS probe labelling (fragment/DMSO); higher = less target engagement (more negative = stronger competition), active = hit call of the paper (q ≤ 0.05, log2 ratio ≤ -1); conditions: compound concentration: 200 uM; treatment time: 3 h
Entry flag: Y if log2 ratio of Biotin-Ahx-Ub-VS probe labelling reaches -0.3; N if it does not.

Look over these answered cases.
compound	assigned_label
O=C(CCl)Nc1cccc(NC(=O)c2ccccc2)c1	Y
CC(NC(=O)CCl)c1cnn(C2CC2)c1 (configuration not stated)	N
Cl.O=C(CCl)N[C@H]1C[C@@H](n2cccn2)C1	N
O=C(CCl)N1CCCC2CCCCC21 (configuration not stated)	Y
O=C(CCl)N1CCN(C(=O)Nc2ccccc2)CC1	Y

Decide: is the reported value of log2 ratio of Biotin-Ahx-Ub-VS probe labelling for O=C(CCl)Nc1nnc(CC(F)(F)F)o1 equal to or greater than -0.3?
Y

Decide: is the reported value of log2 ratio of Biotin-Ahx-Ub-VS probe labelling for CC(NC(=O)CCl)c1ccc2[nH]ncc2c1 (configuration not stated) equal to or greater than -0.3?
N

====

Molecular target: YOD1 (UniProt Q5VVQ6)
Sequence (whole entry): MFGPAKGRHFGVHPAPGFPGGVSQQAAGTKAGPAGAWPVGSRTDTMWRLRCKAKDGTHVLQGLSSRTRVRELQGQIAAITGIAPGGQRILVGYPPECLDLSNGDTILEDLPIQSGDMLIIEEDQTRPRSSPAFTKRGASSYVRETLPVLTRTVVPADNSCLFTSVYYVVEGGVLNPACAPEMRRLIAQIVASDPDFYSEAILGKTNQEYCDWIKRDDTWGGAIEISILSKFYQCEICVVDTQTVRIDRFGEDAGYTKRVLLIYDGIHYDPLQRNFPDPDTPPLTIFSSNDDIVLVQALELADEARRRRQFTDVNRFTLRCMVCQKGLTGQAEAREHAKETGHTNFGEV
Assay: log2 ratio of Biotin-Ahx-Ub-VS probe labelling (fragment/DMSO); higher = less target engagement (more negative = stronger competition), active = hit call of the paper (q ≤ 0.05, log2 ratio ≤ -1)
Settings: compound concentration: 200 uM; treatment time: 3 h
value_type: log2 ratio of Biotin-Ahx-Ub-VS probe labelling

molecule	measured_target	reported_measurement
Cl.O=C(CCl)N1CCCC(c2ncc[nH]2)C1 (stereo not drawn)	YOD1 (UniProt Q5VVQ6)	-0.0255 (inactive)
CN(Cc1nc2ccccc2[nH]1)C(=O)CCl.Cl	YOD1 (UniProt Q5VVQ6)	0.0427 (inactive)

We now examine a further molecule.
Request the reported log2 ratio of Biotin-Ahx-Ub-VS probe labelling associated with O=C(CCl)N1CCCN(C(=O)c2ccc(Cl)cc2)CC1
-0.417 (inactive)

====

target: EIF3H (UniProt O15372); assay: log2 ratio of Biotin-Ahx-Ub-VS probe labelling (fragment/DMSO); higher = less target engagement (more negative = stronger competition), active = hit call of the paper (q ≤ 0.05, log2 ratio ≤ -1); details: compound concentration: 200 uM; treatment time: 3 h
Sequence (O15372 whole entry, the tested form may be a part): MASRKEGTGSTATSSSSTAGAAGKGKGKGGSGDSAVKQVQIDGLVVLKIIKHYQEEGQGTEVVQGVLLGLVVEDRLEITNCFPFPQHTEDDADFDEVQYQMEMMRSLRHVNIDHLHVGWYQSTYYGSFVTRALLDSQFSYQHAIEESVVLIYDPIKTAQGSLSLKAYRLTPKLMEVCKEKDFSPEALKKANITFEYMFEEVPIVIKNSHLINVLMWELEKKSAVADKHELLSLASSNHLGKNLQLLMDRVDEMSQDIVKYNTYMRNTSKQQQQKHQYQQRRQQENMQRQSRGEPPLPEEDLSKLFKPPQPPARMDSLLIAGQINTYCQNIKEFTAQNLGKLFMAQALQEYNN
value_type: log2 ratio of Biotin-Ahx-Ub-VS probe labelling
Numbers only.

Look over these answered cases.
molecule	measured_target	reported_measurement
Cl.Cn1ncc2c1CCCC2NC(=O)CCl (centres undefined)	EIF3H (UniProt O15372)	0.457
O=C(CCl)N1CCC(O)(Cc2ccc(F)cc2)C1 (centres undefined)	EIF3H (UniProt O15372)	-0.189
O=C(CCl)N1CCC(OCc2ccccc2F)CC1	EIF3H (UniProt O15372)	-0.284
O=C(CCl)N1CCOCCC1c1ccccc1 (centres undefined)	EIF3H (UniProt O15372)	0.204
O=C(CCl)NC1(c2ccc3c(c2)OCCO3)CCCC1	EIF3H (UniProt O15372)	-0.051

// for each molecule in input: emit log2 ratio of Biotin-Ahx-Ub-VS probe labelling
1. O=C(CCl)NCc1noc(C2CC2)n1
2. CC(NC(=O)CCl)c1cc2n(n1)CCCC2.Cl (centres undefined)

1: 0.143; 2: 0.193

// for each molecule in input: emit log2 ratio of Biotin-Ahx-Ub-VS probe labelling
1. O=C(CCl)Nc1cc(Cl)ccc1-n1cncn1
2. Cl.O=C(CCl)N1CCN(Cc2ccccc2)CC1
3. CN1C(=O)c2ccc(NC(=O)CCl)cc2C1=O
4. Cc1noc(N2CCN(C(=O)CCl)CC2)n1.Cl
5. O=C(CCl)N1CCC[C@@H]1c1ccon1
6. O=C(CCl)Nc1ccc(F)cc1F
7. O=C(CCl)N1CCc2[nH]c3ccccc3c2C1

0.376
0.134
0.319
-0.241
0.193
0.108
0.231
